Target: SALL4 ZFC4 G921D (HT-SELEX) (Mus musculus, UniProt Q8BX22 870-940, G921D)
Sequence: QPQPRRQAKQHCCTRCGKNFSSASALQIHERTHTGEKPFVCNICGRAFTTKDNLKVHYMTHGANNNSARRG
Test: HT-SELEX; high values mean tight binding
Conditions: protein: recombinant; vector His6-GST; dsDNA, one strand shown
QUANTITY_NAME: binding signal (fold-change vs cycle 0)

>>> df
   chain_sequence                               test_target  quantitative_result
0          GGATTA  SALL4 ZFC4 G921D (HT-SELEX) (Mus musculus, UniProt Q8BX22 870-940, G921D)                 1.38
1          ACTGAG  SALL4 ZFC4 G921D (HT-SELEX) (Mus musculus, UniProt Q8BX22 870-940, G921D)                 1.01
2          GACTTA  SALL4 ZFC4 G921D (HT-SELEX) (Mus musculus, UniProt Q8BX22 870-940, G921D)                 1.33
3          CAGATA  SALL4 ZFC4 G921D (HT-SELEX) (Mus musculus, UniProt Q8BX22 870-940, G921D)                 1.29
4          ACTCAA  SALL4 ZFC4 G921D (HT-SELEX) (Mus musculus, UniProt Q8BX22 870-940, G921D)                 1.35
5          TAACTA  SALL4 ZFC4 G921D (HT-SELEX) (Mus musculus, UniProt Q8BX22 870-940, G921D)                 1.82
6          GTACTA  SALL4 ZFC4 G921D (HT-SELEX) (Mus musculus, UniProt Q8BX22 870-940, G921D)                 1.29
